Assay read-out Ki; system under study: glutaminyl cyclase (QC) (Homo sapiens).
Note: a bare number is incomplete; add the unit.

Quick one: Ki of FC(F)(F)c1ccc(NC(=S)NCCCn2ccnc2)cc1 ? 3.93 µM

Now consider COc1cc(NC(=NC#N)NCCCn2ccnc2)cc(OC)c1 and answer again. 0.91 µM

Now consider COc1ccc(NC(=S)NCc2ccccc2Cn2ccnc2)cc1OC and answer again. 4.84 µM

Now consider O=S(=O)(c1ccc(NC(=S)NCCCn2ccnc2)cc1)N1CCCCC1 and answer again. 2.27 µM

Now consider COc1cc(NC(=NC#N)NCCCn2ccnc2)cc(OC)c1OC and answer again. 0.88 µM

====

Assay read-out Ki; system under study: glutaminyl cyclase (QC) (Homo sapiens, UniProt Q16769).
Sequence (Q16769 29-361): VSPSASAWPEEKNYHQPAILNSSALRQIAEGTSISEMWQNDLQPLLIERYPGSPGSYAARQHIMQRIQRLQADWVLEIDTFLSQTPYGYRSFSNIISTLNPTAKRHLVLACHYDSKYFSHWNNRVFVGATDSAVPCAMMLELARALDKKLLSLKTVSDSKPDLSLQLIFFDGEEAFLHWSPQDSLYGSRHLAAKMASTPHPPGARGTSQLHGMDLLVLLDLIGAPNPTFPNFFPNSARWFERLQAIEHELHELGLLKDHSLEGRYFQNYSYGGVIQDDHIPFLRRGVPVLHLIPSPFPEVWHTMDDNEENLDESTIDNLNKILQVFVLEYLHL
I only need the number, in nM, no unit after it.

Quick one: Ki of S=C(NCCCn1ccnc1)Nc1ccc(Br)cc1 ? 2520

Now consider COc1ccc(NC(=S)NCc2cccc(Cn3ccnc3)c2)cc1OC and answer again. 3520

Now consider CC(=O)c1ccc(NC(=S)NCCCn2ccnc2)cc1 and answer again. 1700

Now consider S=C(NCCCn1ccnc1)Nc1ccc(I)cc1 and answer again. 2120

Now consider S=C(Cc1ccccc1)NCCCn1ccnc1 and answer again. 4620

Now consider N#Cc1ccc(NC(=S)NCCCn2ccnc2)cc1 and answer again. 2890

Now consider N#CN=C(NCCCn1ccnc1)Nc1ccc2c(c1)OCO2 and answer again. 730
